# Study System: Integrin alpha-V/beta-3 and alpha-IIb/beta 3 (Homo sapiens, UniProt P05106+P06756+P08514)
# Method Description: Inhibition of platelet aggregation in human platelet-rich plasma alpha IIb beta-3 integrin to assess the selectivity for the alpha-v beta-3 over the GPIIb/IIIa integrin receptor
Readout Kind: IC50 (µM)
Write the value in µM as a bare number.

Here is how some compounds turned out for IC50.
[[record]]
structure_string = "CCCCOC(=O)N1C[C@@]2(CC(C(=O)NC[C@H](NS(=O)(=O)c3c(C)cc(C)cc3C)C(=O)O)=NO2)C[C@H]1CNc1ncc[nH]1"
readout_kind = "IC50"
experimental_result = 11

[[record]]
structure_string = "COC(=O)N1C[C@@]2(CC(C(=O)NC[C@H](NS(=O)(=O)c3c(C)cc(C)cc3C)C(=O)O)=NO2)C[C@H]1CNc1ncc[nH]1"
readout_kind = "IC50"
experimental_result = 7.3


Tell me the measured IC50 of `Cc1cc(C)c(S(=O)(=O)N[C@@H](CNC(=O)C2=NO[C@]3(CN[C@H](CNc4ncc[nH]4)C3)C2)C(=O)O)c(C)c1` , please. 1.4
